target: human α-thrombin (Homo sapiens)
pKi: −log10 of the molar value. Where a name gives a salt, the structure may show the parent alone.
test_readout: pKi

The compound listed as Cc1ccc(NS(=O)(=O)c2ccccc2Cl)c(=O)n1CC(=O)NCCONC(=N)N [Example 30, trifluoroacetate] shows pKi equal to 7.21

A: Cc1ccc(NS(=O)(=O)Cc2ccccc2)c(=O)n1CC(=O)N1CCC(ONC(=N)N)CC1 [Example 8]
B: Cc1ccc(NS(=O)(=O)c2ccccc2[N+](=O)[O-])c(=O)n1CC(=O)NCCONC(=N)N [Example 71, trifluoroacetate]
C: Cc1ccc(NS(=O)(=O)Cc2ccccc2)c(=O)n1CC(=O)NCCONC(=N)N [Example 2, trifluoroacetate]
D: COc1ccc(Br)cc1S(=O)(=O)Nc1ccc(C)n(CC(=O)NCCONC(=N)N)c1=O [Example 55]
Sort these compounds on pKi so the largest reading comes first. // rank by listing labels in the order requested
C, A, D, B

1: N=C(N)NOCCNC(=O)Cn1cccc(NS(=O)(=O)Cc2ccccc2)c1=O [Example 4, trifluoroacetate]
2: Cc1ccc(NS(=O)(=O)c2ccc(I)cc2)c(=O)n1CC(=O)NCCONC(=N)N [Example 38, trifluoroacetate]
Lower value of pKi belongs to which: 1 or 2 ? I would appreciate it if you answered with the label of your choice.
2
(2: 7.29, 1: 7.54)

* * *

target: bovine α-chymotrypsin (Bos taurus, UniProt P00766)
Counter-ions that a name gives are not always drawn.
test_readout: Ki (µM)
Respond with the bare value in µM.

So, Cc1ccc(NS(=O)(=O)Cc2ccccc2)c(=O)n1CC(=O)NCCONC(=N)N [Example 2, trifluoroacetate] ? Its Ki was 14

* * *

The following compounds each carry a recorded pKi for human factor Xa (Homo sapiens).
pKi: −log10 of the molar value. Structures can show the parent of a compound that is named as a salt.
test_readout: pKi

Known pKi results, listed for orientation:
Cc1ccc(NS(=O)(=O)c2ccccc2Cl)c(=O)n1CC(=O)NCCONC(=N)N [Example 30, trifluoroacetate] tested on human factor Xa (Homo sapiens) gave pKi: 5.12

Record Cc1ccc(NS(=O)(=O)c2ccc3cc(Cl)ccc3c2)c(=O)n1CC(=O)NCCONC(=N)N [Example 85, trifluoroacetate] has human factor Xa (Homo sapiens) pKi equal to 5.89

Case Cc1ccc(NS(=O)(=O)Cc2ccc(Cl)c(Cl)c2)c(=O)n1CC(=O)NCCONC(=N)N [Example 24, trifluoroacetate] , human factor Xa (Homo sapiens), pKi recorded as 5.66

human factor Xa (Homo sapiens) data for N=C(N)NOCCNC(=O)Cn1cccc(NS(=O)(=O)Cc2ccccc2)c1=O [Example 4, trifluoroacetate] ; its pKi: 5.10

Entry Cc1ccc(NS(=O)(=O)Cc2ccccc2)c(=O)n1CC(=O)NCCONC(=N)N [Example 2, trifluoroacetate] , tested on human factor Xa (Homo sapiens), has a reported pKi of 4.62

Observed pKi on human factor Xa (Homo sapiens), entry `COc1ccc(Br)cc1S(=O)(=O)Nc1ccc(C)n(CC(=O)NCCONC(=N)N)c1=O` , equals 5.68

a: Cc1ccc(NS(=O)(=O)c2ccccc2[N+](=O)[O-])c(=O)n1CC(=O)NCCONC(=N)N [Example 71, trifluoroacetate]
b: Cc1ccc(NS(=O)(=O)c2ccc(I)cc2)c(=O)n1CC(=O)NCCONC(=N)N [Example 38, trifluoroacetate]
Given the listed items, does a or b have the lesser reported pKi? Please respond with the label that marks your chosen entry.
a
